MIC, Haemophilus influenzae: measured values

| compound | MIC / µg/mL |
| --- | --- |
| CC[C@H]1OC(=O)C(C)C(=O)[C@H](C)[C@@H](O[C@@H]2O[C@H](C)C[C@H](N(C)C)[C@H]2O)[C@](C)(OC(=O)NCc2ccccc2)C[C@@H](C)C(=O)[C@H](C)[C@H]2NC(=O)O[C@@]21C (stereo partly drawn) | 16 |
| CC[C@H]1OC(=O)C(C)C(=O)[C@H](C)[C@@H](O[C@@H]2O[C@H](C)C[C@H](N(C)C)[C@H]2O)[C@](C)(OC(=O)N/C=C/c2ccc(-n3ccnc3)cc2)C[C@@H](C)C(=O)[C@H](C)[C@H]2NC(=O)O[C@@]21C (stereo partly drawn) | 4 |
| CC[C@H]1OC(=O)C(C)C(=O)[C@H](C)[C@@H](O[C@@H]2O[C@H](C)C[C@H](N(C)C)[C@H]2O)[C@](C)(OC(=O)N/C=C/c2ccccc2)C[C@@H](C)C(=O)[C@H](C)[C@H]2NC(=O)O[C@@]21C (stereo partly drawn) | 4 |
